System: A375 multi-cell spheroids with HUVEC/MSC, viability
test_name: Anticancer human tumor A375 cell line growth inhibition [GQUAD];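 note: spheroids exposed to compounds for seven days before readout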
assay_conditions: second compound 1 µM; first compound 0.0316 µM; active compounds read low
property: viability, T/C (%)
// units = %; emit number, no label

Q. Give viability, T/C for this entry on A375 multi-cell spheroids with HUVEC/MSC, viability: CC1COCCN1c1cc(C2(O)CC3CCC(C2)O3)c2cnn(-c3ccn[nH]3)c2n1 (stereo not given) + Cc1cnc(CNC(=O)c2c(=O)c3ccc(N4CCCN(C)CC4)nc3n3c2sc2ccccc23)cn1
A. 40.9

Q. Give viability, T/C for this entry on A375 multi-cell spheroids with HUVEC/MSC, viability: COc1cccc2c1C(=O)c1c(O)c3c(c(O)c1C2=O)CC(O)(C(=O)CO)CC3OC1CC(N)C(O)C(C)O1 (stereo not given) + CN(C)c1ccc(Nc2c3ccc(NC(=O)CCN4CCCC4)cc3nc3cc(NC(=O)CCN4CCCC4)ccc23)cc1
A. 107

Q. Give viability, T/C for this entry on A375 multi-cell spheroids with HUVEC/MSC, viability: C=CC(=O)N1CCN(c2nc(=O)n(-c3c(C)ccnc3C(C)C)c3nc(-c4c(O)cccc4F)c(F)cc23)C(C)C1 (stereo not given) + Cc1cnc(CNC(=O)c2c(=O)c3ccc(N4CCCN(C)CC4)nc3n3c2sc2ccccc23)cn1
A. 42.4

Q. Give viability, T/C for this entry on A375 multi-cell spheroids with HUVEC/MSC, viability: Cc1cccc(N(C)C(=O)C2C(O)CCN2c2nc(C)cc(C(F)(F)F)c2C#N)c1 (stereo not given) + Cc1[nH]c2ccc(F)cc2c1-c1nc2c3cccnc3c3ncccc3c2[nH]1
A. 95.7

Q. Give viability, T/C for this entry on A375 multi-cell spheroids with HUVEC/MSC, viability: CC(C)n1c(=O)n(C)c2cnc3cc(F)c(-c4ccc(OCCCN5CCCCC5)nc4)cc3c21 + Cc1cnc(CNC(=O)c2c(=O)c3ccc(N4CCCN(C)CC4)nc3n3c2sc2ccccc23)cn1
A. 56

Q. Give viability, T/C for this entry on A375 multi-cell spheroids with HUVEC/MSC, viability: CC(=O)O[C@H]1C(=O)[C@@]2(C)[C@H]([C@H](OC(=O)c3ccccc3)[C@]3(O)C[C@H](OC(=O)[C@H](O)[C@@H](NC(=O)c4ccccc4)c4ccccc4)C(C)=C1C3(C)C)[C@]1(OC(C)=O)CO[C@@H]1C[C@@H]2O + Cc1cnc(CNC(=O)c2c(=O)c3ccc(N4CCCN(C)CC4)nc3n3c2sc2ccccc23)cn1
A. 35

Q. Give viability, T/C for this entry on A375 multi-cell spheroids with HUVEC/MSC, viability: COc1cc(C2c3cc4c(cc3C(OC3OC5COC(C)OC5C(O)C3O)C3COC(=O)C23)OCO4)cc(OC)c1O (stereo not given) + CN(C)c1ccc(Nc2c3ccc(NC(=O)CCN4CCCC4)cc3nc3cc(NC(=O)CCN4CCCC4)ccc23)cc1
A. 117

Q. Give viability, T/C for this entry on A375 multi-cell spheroids with HUVEC/MSC, viability: CC1COCCN1c1cc(C2(O)CC3CCC(C2)O3)c2cnn(-c3ccn[nH]3)c2n1 (stereo not given) + Cc1[nH]c2ccc(F)cc2c1-c1nc2c3cccnc3c3ncccc3c2[nH]1
A. 79.1

Q. Give viability, T/C for this entry on A375 multi-cell spheroids with HUVEC/MSC, viability: CCc1c2c(nc3ccc(O)cc13)-c1cc3c(c(=O)n1C2)COC(=O)[C@]3(O)CC + Cc1cnc(CNC(=O)c2c(=O)c3ccc(N4CCCN(C)CC4)nc3n3c2sc2ccccc23)cn1
A. 10.1

Q. Give viability, T/C for this entry on A375 multi-cell spheroids with HUVEC/MSC, viability: CCCS(=O)(=O)Nc1ccc(F)c(C(=O)c2c[nH]c3ncc(-c4ccc(Cl)cc4)cc23)c1F + CN(C)c1ccc(Nc2c3ccc(NC(=O)CCN4CCCC4)cc3nc3cc(NC(=O)CCN4CCCC4)ccc23)cc1
A. 34.9

* * *

Test system: A375 multi-cell spheroids with HUVEC/MSC, viability
test_name: Anticancer human tumor A375 cell line growth inhibition [GQUAD];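 note: spheroids exposed to compounds for seven days before readout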
assay_conditions: second compound 0.0316 µM; first compound 0.316 µM; active compounds read low
property: viability, T/C (%)
// units = %; emit number, no label

Q. Tell me viability, T/C reported for CC[C@@]1(O)C(=O)OCc2c1cc1n(c2=O)Cc2cc3c(CN(C)C)c(O)ccc3nc2-1 + Cc1cnc(CNC(=O)c2c(=O)c3ccc(N4CCCN(C)CC4)nc3n3c2sc2ccccc23)cn1
A. 11.3

Q. Tell me viability, T/C reported for COc1cc(C2c3cc4c(cc3C(OC3OC5COC(C)OC5C(O)C3O)C3COC(=O)C23)OCO4)cc(OC)c1O (centres undefined) + Cc1cnc(CNC(=O)c2c(=O)c3ccc(N4CCCN(C)CC4)nc3n3c2sc2ccccc23)cn1
A. 65.6

Q. Tell me viability, T/C reported for C#Cc1c(F)ccc2cc(O)cc(-c3ncc4c(N5CC6CCC(C5)N6)nc(OCC56CCCN5CC(F)C6)nc4c3F)c12 (centres undefined) + CN(C)c1ccc(Nc2c3ccc(NC(=O)CCN4CCCC4)cc3nc3cc(NC(=O)CCN4CCCC4)ccc23)cc1
A. 101

Q. Tell me viability, T/C reported for Cc1cccc(N(C)C(=O)C2C(O)CCN2c2nc(C)cc(C(F)(F)F)c2C#N)c1 (centres undefined) + Cc1[nH]c2ccc(F)cc2c1-c1nc2c3cccnc3c3ncccc3c2[nH]1
A. 94.8

Q. Tell me viability, T/C reported for CC(C)n1c(=O)n(C)c2cnc3cc(F)c(-c4ccc(OCCCN5CCCCC5)nc4)cc3c21 + CN(C)c1ccc(Nc2c3ccc(NC(=O)CCN4CCCC4)cc3nc3cc(NC(=O)CCN4CCCC4)ccc23)cc1
A. 105

Q. Tell me viability, T/C reported for CC[C@@]1(O)C(=O)OCc2c1cc1n(c2=O)Cc2cc3c(CN(C)C)c(O)ccc3nc2-1 + CN(C)c1ccc(Nc2c3ccc(NC(=O)CCN4CCCC4)cc3nc3cc(NC(=O)CCN4CCCC4)ccc23)cc1
A. 9.04

Q. Tell me viability, T/C reported for CC(C)(O)C1CCC(Nc2ccc3ncc(-c4cccc(C(F)(F)F)c4)n3n2)CC1 (centres undefined) + Cc1[nH]c2ccc(F)cc2c1-c1nc2c3cccnc3c3ncccc3c2[nH]1
A. 96.5

Q. Tell me viability, T/C reported for CC1COCCN1c1cc(C2(S(C)(=N)=O)CC2)nc(-c2ccnc3[nH]ccc23)n1 (centres undefined) + Cc1[nH]c2ccc(F)cc2c1-c1nc2c3cccnc3c3ncccc3c2[nH]1
A. 99.4

Q. Tell me viability, T/C reported for CC1COCCN1c1cc(-c2ccnn2C)c2ccnc(-c3ccn[nH]3)c2n1 (centres undefined) + Cc1cnc(CNC(=O)c2c(=O)c3ccc(N4CCCN(C)CC4)nc3n3c2sc2ccccc23)cn1
A. 51.9

* * *

Tested on: A375 multi-cell spheroids with HUVEC/MSC, viability
test_name: Anticancer human tumor A375 cell line growth inhibition [GQUAD];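 note: spheroids exposed to compounds for seven days before readout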
assay_conditions: second compound 1 µM; first compound 1 µM; active compounds read low
From the text: DNA G-quadruplex Stabilizer Agents in Combinations in Complex Spheroids A high-throughput screen of multi-cell type tumor spheroids was designed to identify active combinations of DNA G-quadruplex stabilizer agents and targeted small molecules. […] Compounds. […] If the clinical Cmax for an agent had not been determined, the highest concentration tested was 10 microM. […]
Can you tell me viability, T/C for the items I'm about to list?
// units = %; emit number, no label

Q. Give viability, T/C for this entry on A375 multi-cell spheroids with HUVEC/MSC, viability: C=CCn1c(=O)c2cnc(Nc3ccc(N4CCN(C)CC4)cc3)nc2n1-c1cccc(C(C)(C)O)n1 + CN(C)c1ccc(Nc2c3ccc(NC(=O)CCN4CCCC4)cc3nc3cc(NC(=O)CCN4CCCC4)ccc23)cc1
A. 63.8

Q. Give viability, T/C for this entry on A375 multi-cell spheroids with HUVEC/MSC, viability: COc1cc(C2c3cc4c(cc3C(OC3OC5COC(C)OC5C(O)C3O)C3COC(=O)C23)OCO4)cc(OC)c1O (stereo not given) + CN(C)c1ccc(Nc2c3ccc(NC(=O)CCN4CCCC4)cc3nc3cc(NC(=O)CCN4CCCC4)ccc23)cc1
A. 58.6

Q. Give viability, T/C for this entry on A375 multi-cell spheroids with HUVEC/MSC, viability: COc1cccc2c1C(=O)c1c(O)c3c(c(O)c1C2=O)CC(O)(C(=O)CO)CC3OC1CC(N)C(O)C(C)O1 (stereo not given) + CN(C)c1ccc(Nc2c3ccc(NC(=O)CCN4CCCC4)cc3nc3cc(NC(=O)CCN4CCCC4)ccc23)cc1
A. 17.7

Q. Give viability, T/C for this entry on A375 multi-cell spheroids with HUVEC/MSC, viability: CC1COCCN1c1cc(-c2ccnn2C)c2ccnc(-c3ccn[nH]3)c2n1 (stereo not given) + Cc1cnc(CNC(=O)c2c(=O)c3ccc(N4CCCN(C)CC4)nc3n3c2sc2ccccc23)cn1
A. 21.5

Q. Give viability, T/C for this entry on A375 multi-cell spheroids with HUVEC/MSC, viability: C=CCn1c(=O)c2cnc(Nc3ccc(N4CCN(C)CC4)cc3)nc2n1-c1cccc(C(C)(C)O)n1 + Cc1cnc(CNC(=O)c2c(=O)c3ccc(N4CCCN(C)CC4)nc3n3c2sc2ccccc23)cn1
A. 25.3
